biological target: Phosphatidylinositol 4,5-bisphosphate 3-kinase catalytic subunit gamma isoform (Homo sapiens, UniProt P48736); assay: Inhibition of N-terminal His6-tagged recombinant full length human PI3Kgamma expressed in baculovirus infected Sf21 insect cells at 1 uM by HTRF assay relative to control
Sequence (P48736 whole entry, looked up, canonical isoform): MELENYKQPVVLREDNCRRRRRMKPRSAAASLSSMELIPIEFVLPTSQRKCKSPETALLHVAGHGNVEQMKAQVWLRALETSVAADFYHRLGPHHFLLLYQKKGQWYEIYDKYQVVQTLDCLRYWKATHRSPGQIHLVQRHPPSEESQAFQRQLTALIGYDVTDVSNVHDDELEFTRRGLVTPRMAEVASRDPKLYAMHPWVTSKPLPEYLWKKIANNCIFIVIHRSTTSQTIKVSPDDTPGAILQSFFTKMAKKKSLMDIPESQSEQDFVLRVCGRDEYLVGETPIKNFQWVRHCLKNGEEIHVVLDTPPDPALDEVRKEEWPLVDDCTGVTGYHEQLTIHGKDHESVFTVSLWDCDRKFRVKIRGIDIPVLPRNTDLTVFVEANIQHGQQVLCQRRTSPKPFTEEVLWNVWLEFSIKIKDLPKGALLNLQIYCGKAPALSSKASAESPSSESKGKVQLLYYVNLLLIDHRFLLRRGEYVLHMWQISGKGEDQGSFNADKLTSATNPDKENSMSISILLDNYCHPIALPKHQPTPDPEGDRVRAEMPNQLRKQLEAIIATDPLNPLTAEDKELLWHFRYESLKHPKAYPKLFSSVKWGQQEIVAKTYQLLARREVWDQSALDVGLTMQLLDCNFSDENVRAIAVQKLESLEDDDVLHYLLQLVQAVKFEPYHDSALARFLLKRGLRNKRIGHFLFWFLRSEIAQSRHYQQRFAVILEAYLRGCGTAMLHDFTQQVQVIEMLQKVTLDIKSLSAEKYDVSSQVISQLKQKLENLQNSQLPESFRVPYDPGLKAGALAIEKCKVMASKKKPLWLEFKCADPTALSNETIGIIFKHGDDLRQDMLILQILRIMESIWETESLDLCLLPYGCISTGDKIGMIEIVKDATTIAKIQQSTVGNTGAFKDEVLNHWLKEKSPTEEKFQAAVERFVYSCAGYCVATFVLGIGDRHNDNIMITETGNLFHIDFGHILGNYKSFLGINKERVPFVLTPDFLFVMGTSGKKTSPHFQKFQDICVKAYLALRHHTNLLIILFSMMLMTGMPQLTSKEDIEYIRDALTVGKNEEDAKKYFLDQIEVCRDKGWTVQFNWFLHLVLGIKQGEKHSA
PROPERTY: inhibition (%)
A number alone suffices; assume %.

C[C@H]1CC[C@@H](c2nc3cccc(Cl)c3c(=O)n2N2CCOCC2)N1c1nc(N)nc(N)c1C#N | 0
C[C@H]1CC[C@@H](c2nc3cccc(Cl)c3c(=O)n2-c2ccccc2)N1c1nc(F)nc2[nH]cnc12 | 34
C[C@H]1CC[C@@H](c2nc3cccc(Cl)c3c(=O)n2-c2cc(F)cc(F)c2)N1c1nc(N)nc2[nH]cnc12 | 2

Please find the next molecule below.
Exam item: I am curious: what inhibition value has been reported for `C[C@H]1CC[C@@H](c2nc3cccc(Cl)c3c(=O)n2-c2cccnc2)N1c1nc(N)nc2[nH]cnc12` ?
Marked response: 0
